Values from patent US20050049402A1

- system-tested: human TNFα R31Q mutant (human, UniProt P01375 77-233)
- Sequence (P01375 77-233 R107Q): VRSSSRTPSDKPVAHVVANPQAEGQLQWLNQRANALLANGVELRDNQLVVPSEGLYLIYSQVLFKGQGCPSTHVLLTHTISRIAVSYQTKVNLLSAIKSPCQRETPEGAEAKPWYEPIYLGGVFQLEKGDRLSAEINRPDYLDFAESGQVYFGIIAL
- assay-notes: ELISA on chimeric/mutant TNFα
measured-quantity: binding result

# annotated cases, reported binding result shown
| binder | binding result |
| --- | --- |
| 250 (antibody, human IgG1, V domains shown, XENOMAX derived, recombinant human IgG1 kappa; also called 250Ab; SC250) VH: EVQLVESGGGLIQPGGSLRLSCAASGFTVSSNYMSWVRQAPGKGLEWVSVIYSGDRTYYADSVKGRFTISRDNSKNTLYLQMNSLRAEDTAVYYCARGEGGFDYWGQGTLVTVSS VL: EIVMTQSPATLSVSPGERATLSCRASQSVTSNLAWYQQKPGQAPRLLIHGASIRATGLPARFSGSGSGTEFTLTISSLQSEDFAVYYCQQYNYWWTFGQGTKVEIK | binds |
| 299v2 (antibody, human IgG1, V domains shown, XENOMAX derived, recombinant human IgG1 kappa; also called 299v2Ab; SC299V2) VH: QVQLVESGGGVVQPGRSLRLSCAASGFTFSSYDMHWVRQAPGKGLEWVAVIWSDGSIKYYADSVKGRFTISRDNSKNTLYLQMNSLRAEDTAVYYCAREVESAMGGFYYNGMDVWGQGTTVTVSS VL: DIQMTQSPSSLSASVGDRVTITCRASQGIRIDLGWYQQKPGKAPKRLIYAASTLQSGVPSRFSGSGSGTEFIFTISSLQPEDFASYYCLQHKSYPLTFGGGTKVEIK | no binding |
| 263 (antibody, human IgG1, V domains shown, XENOMAX derived, recombinant human IgG1 kappa; also called SC263) VH: EVQLVESGGGLIQPGGSLRLSCAASGFTVSRNYMSWVRQAPGKGLEWVSVIYSGDRTYYADSVKGRFTISRDNSKNTLYLQMNSLRAEDTAVYYCARGEGGFDYWGQGTLVTVSS VL: EIVMTQSPATLSVSPGERATLSCRASQSVSSNLAWYQQKPGQAPRLLIHGASIRATGLPARFSGSGSGTEFTLTISSLQSEDFAVYYCQQYNYWWTFGQGTKVEIK | binds |
| 291 (antibody, human IgG1, V domains shown, XENOMAX derived, recombinant human IgG1 kappa; also called 291 Ab; SC291) VH: QVQLVESGGSVVQPGRSLRLSCAASGFTFSNYGIHWVRQAPGKGLEWVAVIWSDGSNKYYADSVKGRFTISRDNSKNTLYLQMNSLRAEDTAVYYCARELPNSGSYSGYYYYYGMDVWGQGTTVTVSS VL: DIQMTQSPSSLSASVGDRVTITCRASQGIRNDLGWYQQKPGKAPKRLIYAASSLQSGVPSRFSGSGSGTEFTLTISSLQPEDFATYYCLQHCCYPLTFGGGTKVEIK | no binding |

Next binder, please.
GET /values?readout=binding result&item= 282 (antibody, human IgG1, V domains shown, XENOMAX derived, recombinant human IgG1 kappa; also called 282 Ab; SC282) VH: QVQLVESGGGVVQPGRSLRLSCAASGFTVSSYGMHWVRQAPGKGLEWVAVIWSNGSNKYYADSVKGRFTISRDNSKNTLYLQMNSLRAEDTAVYYCARDNGVYVGYAYYYGMDVWGQGTTVTVSS VL: DIQMTQSPSSLSASVGDRVTITCRASQGIRNDLGWYQQKPGKAPKRLIYAASSLHSGVPSRFSGSGSGTEFTLTISSLQPEDFATYYCLQHNSYPWTFGQGTKVEIK
binds
